Record: log10 IC50 reported on UDP-galactopyranose mutase (Mycobacterium tuberculosis, UniProt P9WIQ1).
Sequence (P9WIQ1 whole entry): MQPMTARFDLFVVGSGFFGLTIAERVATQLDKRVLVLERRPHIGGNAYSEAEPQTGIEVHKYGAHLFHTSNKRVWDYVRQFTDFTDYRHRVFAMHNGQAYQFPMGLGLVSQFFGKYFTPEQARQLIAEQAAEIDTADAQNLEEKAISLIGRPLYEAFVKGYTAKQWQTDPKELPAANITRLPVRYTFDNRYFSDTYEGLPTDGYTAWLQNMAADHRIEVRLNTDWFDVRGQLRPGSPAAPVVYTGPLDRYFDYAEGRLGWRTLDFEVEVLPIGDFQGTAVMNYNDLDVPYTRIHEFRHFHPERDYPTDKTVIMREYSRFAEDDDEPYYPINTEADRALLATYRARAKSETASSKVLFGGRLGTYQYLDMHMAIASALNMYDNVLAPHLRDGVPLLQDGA
Field: value | Transform: log10 | Quantity: IC50 | Unit: µM

1. COc1ccc(CNC(=O)c2ccc([N+](=O)[O-])o2)c(OC)c1
2.05
2. COc1ccc(CCNC(=O)c2ccc([N+](=O)[O-])o2)cc1
1.77
3. N#Cc1ccc(NC(=O)c2ccc([N+](=O)[O-])o2)cc1
2.59
4. O=C(NCc1ccccc1Cl)c1ccc([N+](=O)[O-])o1
1.73

What measured log10 IC50 goes with O=C(NCCc1ccccc1)c1ccc([N+](=O)[O-])o1 ?
2.50

Please look up its log10 IC50: O=C(NC12CC3CC(CC(C3)C1)C2)c1ccc([N+](=O)[O-])o1
2.23

====

We begin with a simple list: items and their reported fraction unbound.
Assay: The protein binding is expressed as percent bound as determined by VolSurf
Assay type: ADME
Settings: read-out: Protein binding (converted)
# output: bare number, no unit

1. COc1cccc(NC(=O)c2ccc([S+]([O-])c3ccccc3)o2)c1 (configuration not stated)
0.39
2. COc1ccc(CNC(=O)c2ccc([N+](=O)[O-])o2)c(OC)c1
0.409
3. O=C(NC1CCc2ccccc21)c1ccc([N+](=O)[O-])o1 (configuration not stated)
0.23
4. COc1ccc(NC(=O)c2ccc([N+](=O)[O-])o2)cc1
0.369
5. O=C(Nc1cnccn1)c1ccc([N+](=O)[O-])o1
0.528
6. COc1ccccc1CNC(=O)c1ccc([N+](=O)[O-])o1
0.335
7. COc1cccc(NC(=O)c2ccc([N+](=O)[O-])o2)c1
0.364
8. CN(C(=O)c1ccc([N+](=O)[O-])o1)c1ccccc1
0.332
9. C[C@H](NC(=O)c1ccc([N+](=O)[O-])o1)c1ccccc1
0.259
10. COc1cc(CNC(=O)c2ccc([N+](=O)[O-])o2)cc(OC)c1OC
0.344

Given COc1cccc(NC(=O)c2ccc(S(=O)(=O)c3ccccc3)o2)c1 , state its recorded fraction unbound.
0.485

Data request, read-out fraction unbound, for COc1ccc(CNC(=O)c2ccc([N+](=O)[O-])o2)cc1OC
0.363

What value of measured fraction unbound is listed for O=C(Nc1cccc(F)c1)c1ccc([N+](=O)[O-])o1 ?
0.334

====

Target: UDP-galactopyranose mutase (Mycobacterium tuberculosis)
endpoint_label: IC50 (µM)
Use µM as the unit, but write only the number.

Take a look at these entries with their results.
1) C[C@H](NC(=O)c1ccc([N+](=O)[O-])o1)c1ccccc1
146
2) CN(C(=O)c1ccc([N+](=O)[O-])o1)c1ccccc1
260

Consider the additional compound presented here.
Lab note: need IC50 with UDP-galactopyranose mutase (Mycobacterium tuberculosis) for entry O=C(Nc1cccc(F)c1)c1ccc([N+](=O)[O-])o1 , please look it up.
112

====

Test system UniProt P9WIQ1, pIC50 listed for each of the compounds.
Keep it numeric: pIC50 is minus log10 of the concentration in mol/L.

Worked examples follow.
1. O=C(Nc1cc[nH]n1)c1ccc([N+](=O)[O-])o1
3.14
2. O=C(Nc1cccc(OCc2ccccc2)c1)c1ccc([N+](=O)[O-])o1
4.08
3. COc1ccccc1CNC(=O)c1ccc([N+](=O)[O-])o1
3.45

What value of measured pIC50 is listed for O=C(Nc1ccccn1)c1ccc([N+](=O)[O-])o1 ?
3.64

Quick check: pIC50 of COc1cccc(NC(=O)c2ccc(S(=O)(=O)c3ccccc3)o2)c1 ?
4.19

Please report the recorded pIC50 for O=C(Nc1cccc(O)c1)c1ccc([N+](=O)[O-])o1 .
3.50

Item under review: COc1cccc(NC(=O)c2ccc([N+](=O)[O-])o2)c1 . Reported pIC50?
3.80

What measured pIC50 goes with COc1ccc(N(C)C(=O)c2ccc([N+](=O)[O-])o2)cc1 ?
3.30

Give its pIC50 value. Item: O=C(NCc1ccco1)c1ccc([N+](=O)[O-])o1
3.61

Given the entry O=C(Nc1cccnc1)c1ccc([N+](=O)[O-])o1 , report its measured pIC50.
3.69

Fill in: pIC50 of COc1ccc(CCNC(=O)c2ccc([N+](=O)[O-])o2)cc1OC is ___
3.78

Item COc1cc(CNC(=O)c2ccc([N+](=O)[O-])o2)cc(OC)c1OC has what recorded pIC50?
3.73

I am curious: what pIC50 value has been reported for O=C(NC1CCc2ccccc21)c1ccc([N+](=O)[O-])o1 (stereo not drawn) ?
3.58
